These measurements were taken from ChEMBL document CHEMBL4513216.

Exercise: state measured cytotoxicity at 10 µM for each of the compounds provided.
Test: Toxicity liver stage against HepG2, at 10uM
Assay type: cell-based
Set-up: test concentration 10 uM, cell line HepG2-A16-CD81EGFP
Settings: human, HepG2-A16-CD81EGFP cells; read-out: INHIBITION
The answer is to be given in %; state only the numeric part.

Entry `Cc1cnc(CN2CCN(c3ccnc(-c4ccccc4)n3)CC2)cn1` has what cytotoxicity at 10 µM?
3.61

What about this compound? COCC(NC(=O)c1cc(C)n(C)n1)c1cccc(C(F)(F)F)c1 (configuration not stated)
9.43

What about this compound? `Cc1ccc(-n2nnc(CC(=O)N3CCN(C4CC4)CC3)c2C)cc1`
-8.06

What about this compound? Cc1ccccc1C(C#N)NC(=O)c1cccc2c1OCCO2 (configuration not stated)
-3.38

What about this compound? `CCN(C)C(=O)c1cccc(C(=O)N(C)Cc2cccc(O)c2)c1`
11.7

What about this compound? `Cc1ccc(CNCc2cc(Br)c3c(c2)OCO3)cc1`
5.35

What about this compound? CCc1nc2ccccc2n1C(CC)C(=O)N(C)Cc1noc(C)n1 (configuration not stated)
2.23

What about this compound? O=C1CC2(CCSC2)C(=O)N1Cc1coc(-c2cccc(F)c2)n1 (configuration not stated)
-0.237

What about this compound? CCNC(=O)N(C)C1CCCc2nc(C)sc21 (configuration not stated)
12.2

What about this compound? `CCCSc1nn(CCN(C)C)c2nc3sc(C)c(CC)c3c(=O)n12`
16.4

What about this compound? `O=S(=O)(NCCn1ccc(-c2ccccn2)n1)C1CC1`
-1.04

What about this compound? Cc1nc(Nc2nnc(C)s2)cc(C2CCCN2c2ccncn2)n1 (configuration not stated)
-14.3

###

Experiment: Toxicity liver stage against HepG2, at 10uM
Format: cell-based
Set-up: test concentration 10 uM, cell line HepG2-A16-CD81EGFP
Conditions: human, HepG2-A16-CD81EGFP cells; read-out: INHIBITION
observation_type: cytotoxicity at 10 µM (%)
The answer is to be given in %; state only the numeric part.

Entry N#Cc1cccc(NC2CC(=O)N(Cc3ccccc3Cl)C2)n1 (stereo not drawn) has what cytotoxicity at 10 µM?
4.37

What about this compound? `CNc1nc(CNC(=O)Nc2ccc(OC(C)C)cc2F)cs1`
61.2

What about this compound? CCCc1n[nH]c(C2CN(C(=O)CCCn3ccnc3C)CCO2)n1 (stereo not drawn)
6.03

What about this compound? COc1ccc(F)cc1CN1CCC(O)(CN2CCCCC2)C1 (stereo not drawn)
-12

What about this compound? `CC(=O)N1CCN(C(=O)NCCCN(C)S(C)(=O)=O)CC1`
-7.33

What about this compound? `O=C(COc1coc(CN2CCCC2)cc1=O)Nc1cc(Cl)ccc1Cl`
-1.71

What about this compound? `O=C(O)c1ccnc(-c2ccnc(N3CCC4(CCO4)CC3)n2)c1`
-10.7

What about this compound? COc1c(C2CCCN2C(=O)c2ccc3c(c2)OCO3)c(C)nn1C (stereo not drawn)
-13.4

What about this compound? `COc1ccc(CCN2C(=O)O[C@@H]3CN(C4CCOCC4)C[C@@H]32)cc1`
6.86

What about this compound? Cn1cc(CN2CCc3ncn(C)c3C2COCc2ccccc2)cn1 (stereo not drawn)
9.19

What about this compound? Cc1cnc(CN2CCOC(CN(C)c3cccnn3)C2)cn1 (stereo not drawn)
3.64

What about this compound? `CCc1ocnc1C(=O)N1CCN(c2ccc3ccccc3c2)CC1`
2.99

What about this compound? Cc1cc(C)c(NC(=O)Nc2cnn(CC(O)CN(C)C)c2)c(C)c1 (stereo not drawn)
12.5

What about this compound? CS(=O)(=O)N1CCCCCC1c1cc(-c2ccc(F)cc2)no1 (stereo not drawn)
2.97

What about this compound? Cc1nn(C)c(C)c1C1CCCN1C(=O)c1ccc(C(N)=O)cn1 (stereo not drawn)
-4.34

What about this compound? Cc1cccc(COc2ccc(C(C)NS(N)(=O)=O)cc2)c1 (stereo not drawn)
-6.96

What about this compound? `CN(C)CCO[C@@H]1CC[C@H]2[C@H]1OCCN2C(=O)c1ccccc1F`
2.25

What about this compound? Cc1nc(C(NC(=O)C2CCCC2)c2ccccc2F)no1 (stereo not drawn)
-3.79

What about this compound? `Cc1cccc(-n2nnnc2C(C)(C)Nc2ccccc2C)c1`
8

What about this compound? `CC1CCN(C(=O)c2cnc3cc(C(=O)N(C)C)n(C)c3c2)CC1`
6.14

What about this compound? COCCn1nc(C(=O)N2CCOCC2C)ccc1=O (stereo not drawn)
-8.97

What about this compound? `CCCc1noc(CN2CCC(C(=O)Nc3cnn(CC)c3)CC2)n1`
-0.988

What about this compound? `CCc1cc(NCCCNS(C)(=O)=O)nc(-c2ccccn2)n1`
1.8
